Molecular target: T1, EsCas13d, nuclease-dead (Eubacterium siraeum, UniProt B0MS50, R295A;H300A;R849A;H854A)
T1 sequence: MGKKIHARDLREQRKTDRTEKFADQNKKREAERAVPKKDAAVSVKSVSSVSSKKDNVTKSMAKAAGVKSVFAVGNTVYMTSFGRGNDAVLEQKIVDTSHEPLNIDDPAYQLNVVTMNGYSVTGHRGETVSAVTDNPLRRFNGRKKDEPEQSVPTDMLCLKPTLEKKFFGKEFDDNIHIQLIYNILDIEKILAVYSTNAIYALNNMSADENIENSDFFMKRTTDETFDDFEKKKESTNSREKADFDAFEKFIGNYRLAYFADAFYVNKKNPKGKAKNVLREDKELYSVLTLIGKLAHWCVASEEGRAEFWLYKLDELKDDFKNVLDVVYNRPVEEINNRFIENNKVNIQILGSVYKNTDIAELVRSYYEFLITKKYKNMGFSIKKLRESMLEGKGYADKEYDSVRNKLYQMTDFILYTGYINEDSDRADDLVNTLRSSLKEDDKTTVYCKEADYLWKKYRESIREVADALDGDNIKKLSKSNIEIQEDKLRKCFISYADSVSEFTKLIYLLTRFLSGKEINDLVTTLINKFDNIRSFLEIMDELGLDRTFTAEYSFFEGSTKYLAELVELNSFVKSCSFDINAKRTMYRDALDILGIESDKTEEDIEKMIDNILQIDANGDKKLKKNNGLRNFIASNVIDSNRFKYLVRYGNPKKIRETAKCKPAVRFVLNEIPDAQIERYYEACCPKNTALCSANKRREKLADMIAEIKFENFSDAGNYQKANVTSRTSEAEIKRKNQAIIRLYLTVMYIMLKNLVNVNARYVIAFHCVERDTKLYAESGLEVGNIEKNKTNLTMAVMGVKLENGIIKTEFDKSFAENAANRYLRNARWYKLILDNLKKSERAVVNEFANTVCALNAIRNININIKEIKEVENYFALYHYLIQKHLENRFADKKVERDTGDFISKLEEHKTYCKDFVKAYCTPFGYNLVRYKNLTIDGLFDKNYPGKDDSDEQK
Test: crRNA (strand 1, pre-loaded); Mg2+; 40 mM Tris-HCl pH 7.5, 150 mM NaCl, 6 mM MgCl2, 1 mM DTT, 0.1% Tween-20, 0.2 mg/ml BSA; 25 C; 10 min per concentration, then washed
Details: tags: His6-TwinStrep-SUMO cleaved; N-terminal SNAP kept (SNAP-Surface 488); label: 3' end held by stalled T7 RNA polymerase
Kd strictly less than 20 nM = true (1). Otherwise false (0).

// known answers, use as guide
Enquiry: Please determine if target 2 MT 5'PFS UUG 3'PFS AGA (mixed) RNA 1: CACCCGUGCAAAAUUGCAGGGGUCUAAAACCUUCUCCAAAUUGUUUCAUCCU RNA 2: GGGAAUGGAUCCACAUCUACGAAUUCUUGAGGAUGAAACAAUUUGGAGAAGAGAAGAUCGGAAGAGCACACGU is below 20 nM in terms of Kd.
Return: true (1)

Enquiry: What about target 3 insG 3' of 9,insA 3' of 7 (mixed) RNA 1: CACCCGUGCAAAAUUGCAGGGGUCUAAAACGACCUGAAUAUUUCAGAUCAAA RNA 2: GGGAAUGGAUCCACAUCUACGAAUUCGUUUUUGAUCUGAAAUAGUUACAGGUCUGCAGAUCGGAAGAGCACACGU ?
Return: false (0)

Next:
Enquiry: Please determine if target 1 complement block 5-12 (mixed) RNA 1: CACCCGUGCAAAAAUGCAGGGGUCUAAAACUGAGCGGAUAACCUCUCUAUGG RNA 2: GGGAAUGGAUCCACAUCUACGAAUUCGUACCAUAGAGAGCAAUAGGCCUCACCGAGAUCGGAAGAGCACACGU is below 20 nM in terms of Kd.
Return: true (1)

Enquiry: What about target 3 complement block 5-9 (mixed) RNA 1: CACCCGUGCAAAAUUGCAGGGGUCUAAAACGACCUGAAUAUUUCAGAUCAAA RNA 2: GGGAAUGGAUCCACAUCUACGAAUUCGUUUUUGAUCUGAAAUUAAGUGGUCUGCAGAUCGGAAGAGCACACGU ?
Return: false (0)

Enquiry: What about target 1 insA 3' of 21,insG 3' of 10 (mixed) RNA 1: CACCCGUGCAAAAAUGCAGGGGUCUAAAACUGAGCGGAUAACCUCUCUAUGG RNA 2: GGGAAUGGAUCCACAUCUACGAAUUCGUACCAAUAGAGAGGUUGAUCCGCUCACCGAGAUCGGAAGAGCACACGU ?
Return: false (0)

Enquiry: What about target 1 insC 3' of 22,insU 3' of 2 (mixed) RNA 1: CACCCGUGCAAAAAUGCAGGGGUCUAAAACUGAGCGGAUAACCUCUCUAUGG RNA 2: GGGAAUGGAUCCACAUCUACGAAUUCGUACCCAUAGAGAGGUUAUCCGCUCUACCGAGAUCGGAAGAGCACACGU ?
Return: false (0)

Enquiry: What about target 1 C4U,A9G (mixed) RNA 1: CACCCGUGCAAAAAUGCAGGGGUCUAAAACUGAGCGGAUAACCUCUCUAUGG RNA 2: GGGAAUGGAUCCACAUCUACGAAUUCGUACCAUAGAGAGGUUGUCCGUUCACCGAGAUCGGAAGAGCACACGU ?
Return: false (0)

Enquiry: What about target 1 insC 3' of 10,insC 3' of 5 (mixed) RNA 1: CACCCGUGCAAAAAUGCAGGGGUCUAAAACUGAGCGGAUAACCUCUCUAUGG RNA 2: GGGAAUGGAUCCACAUCUACGAAUUCGUACCAUAGAGAGGUUCAUCCGCCUCACCGAGAUCGGAAGAGCACACGU ?
Return: true (1)
